# Test system: BDF1 mice, B16 melanoma ip, median survival T/C
# procedure_summary: NCI In Vivo Anticancer Drug Screen. Data for tumor model B16 Melanoma (intraperitoneal) in B6D2F1 (BDF1) mice
# experimental_parameters: endpoint: median survival time; dose: 100.0 mg/kg/injection; schedule: Q01DX009 (ip); vehicle: suspension in saline; higher = longer survival
Inconclusive results and toxic doses are left out.
endpoint_name: T/C

**Q:** Please report the recorded T/C for `Nc1cc2[nH]cnc2c(=O)[nH]1` .
**A:** 95 % of control

**Q:** Please report the recorded T/C for `NN1C(=O)c2ccc3c4c(ccc(c24)C1=O)CC3` .
**A:** 102 % of control

**Q:** Please report the recorded T/C for `C1CNCCN1` .
**A:** 106 % of control

**Q:** Please report the recorded T/C for `CC/C(=C(\c1ccccc1)c1ccc(OCCN(C)C)cc1)c1ccccc1` .
**A:** 91 % of control

----------
# System: BDF1 mice, B16 melanoma ip, median survival T/C
# procedure_summary: NCI In Vivo Anticancer Drug Screen. Data for tumor model B16 Melanoma (intraperitoneal) in B6D2F1 (BDF1) mice
# experimental_parameters: endpoint: median survival time; dose: 25.0 mg/kg/injection; schedule: Q01DX009 (ip); vehicle: Klucel (hydroxypropylcellulose) (HPC); higher = longer survival
Inconclusive results and toxic doses are left out.
endpoint_name: T/C

**Q:** Requested read-out T/C, target or system BDF1 mice, B16 melanoma ip, median survival T/C, entry `Cn1c(O)c(/C=C2\C=Nc3ccccc32)n(C)c1=N`
**A:** 100 % of control

**Q:** Requested read-out T/C, target or system BDF1 mice, B16 melanoma ip, median survival T/C, entry `COc1ccc2c(oc(=O)c3c(Cl)nc(C)c(C)c32)c1OC`
**A:** 105 % of control

**Q:** Requested read-out T/C, target or system BDF1 mice, B16 melanoma ip, median survival T/C, entry COc1cc2c(cc1OC)C1CC(=O)C(CC(C)C)CN1CC2 (stereo not given)
**A:** 100 % of control

**Q:** Requested read-out T/C, target or system BDF1 mice, B16 melanoma ip, median survival T/C, entry `Cc1ccc(NC(=O)Nc2cccc3ccccc23)cc1Cl`
**A:** 88 % of control

**Q:** Requested read-out T/C, target or system BDF1 mice, B16 melanoma ip, median survival T/C, entry `BrCCC[P+](c1ccccc1)(c1ccccc1)c1ccccc1`
**A:** 90 % of control

**Q:** Requested read-out T/C, target or system BDF1 mice, B16 melanoma ip, median survival T/C, entry O=C(Cl)C1(Br)CC2c3ccccc3C1([N+](=O)[O-])c1ccccc12 (stereo not given)
**A:** 97 % of control

**Q:** Requested read-out T/C, target or system BDF1 mice, B16 melanoma ip, median survival T/C, entry `CNc1nc(N)nc(Nc2ccc(I)cc2)c1N=O`
**A:** 99 % of control

**Q:** Requested read-out T/C, target or system BDF1 mice, B16 melanoma ip, median survival T/C, entry `ClCCCCCCCCCCCl`
**A:** 100 % of control

**Q:** Requested read-out T/C, target or system BDF1 mice, B16 melanoma ip, median survival T/C, entry CC1NC(=O)COC1c1ccccc1 (stereo not given)
**A:** 95 % of control

**Q:** Requested read-out T/C, target or system BDF1 mice, B16 melanoma ip, median survival T/C, entry `CNC(=S)NCc1ccc(C(=O)NC(C)C)cc1`
**A:** 101 % of control

**Q:** Requested read-out T/C, target or system BDF1 mice, B16 melanoma ip, median survival T/C, entry `O=[N+]([O-])c1cc(C(F)(F)F)ccc1F`
**A:** 109 % of control

**Q:** Requested read-out T/C, target or system BDF1 mice, B16 melanoma ip, median survival T/C, entry CCNC(Cc1ccccc1)c1ccc(OC)cc1 (stereo not given)
**A:** 100 % of control

**Q:** Requested read-out T/C, target or system BDF1 mice, B16 melanoma ip, median survival T/C, entry `CCC/C(C)=C(/C#N)CC`
**A:** 105 % of control

**Q:** Requested read-out T/C, target or system BDF1 mice, B16 melanoma ip, median survival T/C, entry O=C1OC(COCC#Cc2ccccc2)CN1c1ccccc1 (stereo not given)
**A:** 97 % of control

**Q:** Requested read-out T/C, target or system BDF1 mice, B16 melanoma ip, median survival T/C, entry `CC(=O)Nc1ccc([I+]c2ccc([N+](=O)[O-])cc2)cc1`
**A:** 100 % of control

**Q:** Requested read-out T/C, target or system BDF1 mice, B16 melanoma ip, median survival T/C, entry `O=C(Oc1ccc(Cl)cc1Cl)c1ccc([N+](=O)[O-])cc1`
**A:** 87 % of control

**Q:** Requested read-out T/C, target or system BDF1 mice, B16 melanoma ip, median survival T/C, entry CCN(CC)CCCC(C)Nc1c2ccc(Cl)cc2nc2cc(Cl)ccc12 (stereo not given)
**A:** 106 % of control

**Q:** Requested read-out T/C, target or system BDF1 mice, B16 melanoma ip, median survival T/C, entry `Nc1nc(-c2ccccc2N=NN2CCCC2)nc2ccccc12`
**A:** 95 % of control

**Q:** Requested read-out T/C, target or system BDF1 mice, B16 melanoma ip, median survival T/C, entry `Cc1ccc(C(C)(C)C[P+](C)(c2ccccc2)c2ccccc2)cc1`
**A:** 99 % of control

**Q:** Requested read-out T/C, target or system BDF1 mice, B16 melanoma ip, median survival T/C, entry `CN(C)C(=O)C1(c2ccc(Cl)cc2)CCN(CCCC(=O)c2ccc(F)cc2)CC1`
**A:** 94 % of control

**Q:** Requested read-out T/C, target or system BDF1 mice, B16 melanoma ip, median survival T/C, entry `CCN(CC)C(=S)SSC(=S)N(CC)CC`
**A:** 92 % of control

**Q:** Requested read-out T/C, target or system BDF1 mice, B16 melanoma ip, median survival T/C, entry `C[C@]12CC[C@@H]3c4ccc(O)cc4CC[C@H]3[C@@H]1CC[C@@H]2O`
**A:** 93 % of control

**Q:** Requested read-out T/C, target or system BDF1 mice, B16 melanoma ip, median survival T/C, entry NC1=NC(=O)C(c2ccccc2)O1 (stereo not given)
**A:** 97 % of control

**Q:** Requested read-out T/C, target or system BDF1 mice, B16 melanoma ip, median survival T/C, entry `CC(C)(C)c1cc([N+](=O)[O-])cc(C(C)(C)C)c1O`
**A:** 95 % of control

**Q:** Requested read-out T/C, target or system BDF1 mice, B16 melanoma ip, median survival T/C, entry `COc1ccc2c(ccc3oc([N+](=O)[O-])cc32)c1`
**A:** 118 % of control

**Q:** Requested read-out T/C, target or system BDF1 mice, B16 melanoma ip, median survival T/C, entry COc1cccc(C2CCN(C)C2)c1 (stereo not given)
**A:** 100 % of control

**Q:** Requested read-out T/C, target or system BDF1 mice, B16 melanoma ip, median survival T/C, entry `O=C(NNCc1ccccc1)c1ccccn1`
**A:** 90 % of control

**Q:** Requested read-out T/C, target or system BDF1 mice, B16 melanoma ip, median survival T/C, entry C=CCNCC(O)c1ccccc1 (stereo not given)
**A:** 103 % of control

**Q:** Requested read-out T/C, target or system BDF1 mice, B16 melanoma ip, median survival T/C, entry `C=C(Br)CN(CC)CC`
**A:** 103 % of control

**Q:** Requested read-out T/C, target or system BDF1 mice, B16 melanoma ip, median survival T/C, entry `CC(=O)N(C(C)=O)c1ccc(N=Nc2ccccc2C)cc1C`
**A:** 117 % of control

**Q:** Requested read-out T/C, target or system BDF1 mice, B16 melanoma ip, median survival T/C, entry `O=[N+]([O-])c1ccc2[nH]c(=S)sc2c1`
**A:** 97 % of control

**Q:** Requested read-out T/C, target or system BDF1 mice, B16 melanoma ip, median survival T/C, entry `Nc1n[nH]c(=O)[nH]1`
**A:** 107 % of control

**Q:** Requested read-out T/C, target or system BDF1 mice, B16 melanoma ip, median survival T/C, entry `CN(C1=NS(=O)(=O)N=C(N(C)c2ccccc2)O1)c1ccccc1`
**A:** 101 % of control

**Q:** Requested read-out T/C, target or system BDF1 mice, B16 melanoma ip, median survival T/C, entry `COC1=C(Br)[C@H](O)[C@](O)(CC#N)C=C1Br`
**A:** 87 % of control

**Q:** Requested read-out T/C, target or system BDF1 mice, B16 melanoma ip, median survival T/C, entry `COc1cc(C(=O)N2CCOCC2)cc(OC)c1OC`
**A:** 110 % of control

**Q:** Requested read-out T/C, target or system BDF1 mice, B16 melanoma ip, median survival T/C, entry `COC1=C(N=[N+]=[N-])C(=O)C(OC)=C(N=[N+]=[N-])C1=O`
**A:** 95 % of control

**Q:** Requested read-out T/C, target or system BDF1 mice, B16 melanoma ip, median survival T/C, entry `O=C(O)[C@@H]1[C@H]2C[C@H]3c4[nH]c5ccccc5c4CCN3C[C@@H]2CC[C@@H]1O`
**A:** 89 % of control

**Q:** Requested read-out T/C, target or system BDF1 mice, B16 melanoma ip, median survival T/C, entry `Cc1ccc(NC(=O)Nc2ccc(Cl)c(Cl)c2)cc1Cl`
**A:** 96 % of control

**Q:** Requested read-out T/C, target or system BDF1 mice, B16 melanoma ip, median survival T/C, entry `Cc1ccc(Cl)cc1NC(=O)Nc1ccccc1Cl`
**A:** 89 % of control

**Q:** Requested read-out T/C, target or system BDF1 mice, B16 melanoma ip, median survival T/C, entry CC(CN=Cc1ccccc1O)N=Cc1ccccc1O (stereo not given)
**A:** 88 % of control

**Q:** Requested read-out T/C, target or system BDF1 mice, B16 melanoma ip, median survival T/C, entry `COc1ccc(N2CSC(=S)N(c3ccc(OC)cc3)C2)cc1`
**A:** 102 % of control

**Q:** Requested read-out T/C, target or system BDF1 mice, B16 melanoma ip, median survival T/C, entry `O=C1CCNC(=O)N1OS(=O)(=O)c1ccccc1`
**A:** 98 % of control

**Q:** Requested read-out T/C, target or system BDF1 mice, B16 melanoma ip, median survival T/C, entry `N#CCCN(C(=O)COc1ccc(Cl)cc1Cl)C1CCCCC1`
**A:** 103 % of control

**Q:** Requested read-out T/C, target or system BDF1 mice, B16 melanoma ip, median survival T/C, entry `C1=NC(c2ccccn2)=NNC(c2ccccn2)=C1c1ccccc1`
**A:** 100 % of control

**Q:** Requested read-out T/C, target or system BDF1 mice, B16 melanoma ip, median survival T/C, entry `Cc1ccc(NCCN(C)C)c2c(=O)c3cc(O)ccc3sc12`
**A:** 162 % of control

**Q:** Requested read-out T/C, target or system BDF1 mice, B16 melanoma ip, median survival T/C, entry `CCOc1cc(C2=NNc3n[nH]c(=S)n3N2)ccc1O`
**A:** 96 % of control

**Q:** Requested read-out T/C, target or system BDF1 mice, B16 melanoma ip, median survival T/C, entry C=C1C(=O)OC2C1CCC(C)C1CCC(=O)OC12C (stereo not given)
**A:** 101 % of control

**Q:** Requested read-out T/C, target or system BDF1 mice, B16 melanoma ip, median survival T/C, entry `S=c1[nH]c2ccccc2[nH]1`
**A:** 100 % of control

**Q:** Requested read-out T/C, target or system BDF1 mice, B16 melanoma ip, median survival T/C, entry `CCCC[N+](CCCC)(CCCC)CCCC.Cc1ccc([SH2+])c([SH2+])c1.Cc1ccc([SH2+])c([SH2+])c1.[Fe+3]`
**A:** 93 % of control

**Q:** Requested read-out T/C, target or system BDF1 mice, B16 melanoma ip, median survival T/C, entry `CCCCCCCCCc1ccc(OC(=O)CCC)cc1`
**A:** 94 % of control

Data origin, for the record: PubChem BioAssay AID192
